These measurements were taken from paper PMC7927146.

Experiment: 14-day GLP toxicology study, daily oral administration
Settings: rat, in vivo, rats
MEASURED_METRIC: NOAEL at 14 day (mg/kg/day)
# value in mg/kg/day; strip the unit string

Q: Please report the recorded NOAEL at 14 day for CC1=C[C@@H](C(N)=O)N2C[C@@H]1N(O[C@H](F)C(=O)OC(C)C)C2=O .
Ans: 500

====

Test: Stability in liver S9 fraction
Assay type: in vitro ADME, rat
Conditions: rat, liver S9 fraction, pH 7.4, 0.8 mg/mL protein, 37 °C
MEASURED_METRIC: half-life at 10 μM (min)
# value in min; strip the unit string

Q: Please report the recorded half-life at 10 μM for CCOC(=O)[C@H](F)ON1C(=O)N2C[C@H]1C=C(C)[C@H]2C(=O)NCCNS(N)(=O)=O .
Ans: 10
